# test.target: Mamu-A2*01:02 (Chinese rhesus macaque | not stated)
# protocol: radioligand binding
pIC50: −log10 of the molar value.
# pIC50 per entry
property: pIC50

{"columns": ["binder", "limit.operator", "recorded.number"],
 "data": [
  ["EREQTLNQL [… (C. trachomatis ATP-dependent zinc protein)]", "=", 4.88],
  ["SRHHAFCFR [… (Aggrecan precursor p667)]", "=", 5.69],
  ["DRLALLANL [… (C. trachomatis recC exodeoxyribonuclease-V g chain)]", "=", 4.72],
  ["KRVVINKDT [… (Y. enterocolitica Hsp60)]", "<", 4.70],
  ["MRDHTITLL [… (C. trachomatis NADH-ubiquinone-oxidoreductase-a-chain)]", "<", 4.70],
  ["NRAKQVIKL [… (C. trachomatis protease ATPase)]", "<", 4.70],
  ["RRYQKSTEL [… (E. coli derived)]", "=", 5.18]
]}

Recorded values, source paper PMC3633659.
